# Log K annotations
- Test system: Nucleic Acid
I'd appreciate a reply containing only the number, no unit.

Please review the entries below; each comes with its answer.
O=S(=O)(Nc1ccc(Nc2c3ccccc3nc3ccccc23)cc1)c1ccccc1	6.2
CS(=O)(=O)NCc1ccccc1Nc1c2ccccc2nc2ccccc12	5.6
Brc1ccccc1Nc1c2ccccc2nc2ccccc12	5.35
CC(=O)Nc1ccccc1Nc1c2ccccc2nc2ccccc12	5.84
CN(C)c1ccc(Nc2c3ccccc3nc3ccccc23)cc1	6.51

Recorded result, Nc1ccc(Nc2c3ccccc3nc3ccccc23)cc1 , Log K: 6.31

Short answer for Clc1ccc(Nc2c3ccccc3nc3ccccc23)cc1 : Log K was 5.99

The compound listed as Cc1ccc(Nc2c3ccccc3nc3ccccc23)cc1 has a reported Log K of 5.99
